Provide the reported IC50 of each item.
Target: GABAA receptor ([35S]-TBPS binding, rat brain cortical membranes)
Test: Steroid inhibition of [35S]-TBPS binding
Details: 3 nM [35S]-TBPS, in the presence of 5 mM GABA, 90 min at room temp

input: # get_value(readout='IC50', item= C[C@@]1(O)CC[C@H]2[C@H](CC[C@@H]3[C@@H]2CC[C@@]2(C)[C@H]3C[C@H]3C[C@H]3[C@@H]2C(=O)Cn2cc(C#N)cn2)C1 )
output: < 100 nM

input: Please look up its IC50: C[C@@]1(O)CC[C@H]2[C@H](CC[C@@H]3[C@@H]2CC[C@@]2(C)[C@H]3[C@@H]3C[C@@H]3[C@@H]2[C@@](C)(O)Cn2cc(C#N)cn2)C1 (single isomer, unassigned)
output: < 100 nM

input: Given C[C@@H](Cn1cc(C#N)cn1)[C@H]1[C@@H]2C[C@@H]2C[C@H]2[C@@H]3CC[C@@H]4C[C@](C)(O)CC[C@@H]4[C@H]3CC[C@]12C , state its recorded IC50.
output: < 100 nM

input: Fill in the blank: the reported IC50 of CCC[C@@]1(O)CC[C@H]2C(CC[C@@H]3[C@@H]2CC[C@@]2(C)[C@H]3[C@@H]3C[C@@H]3[C@@H]2C(=O)Nc2ccc(C#N)cn2)C1 (stereo in doubt) is ____.
output: < 100 nM

input: # IC50 lookup, item COC[C@@]1(O)CC[C@H]2[C@@H](CC[C@@H]3[C@@H]2CC[C@@]2(C)[C@H]3[C@@H]3C[C@@H]3[C@@H]2[C@H](C)Cn2nnc(C)n2)C1
output: 100 to 1000 nM

input: Reported IC50 for Cc1nnn(C[C@@H]2C[C@H]2[C@H]2CC[C@H]3[C@@H]4CC[C@@H]5C[C@](C)(O)CC[C@@H]5[C@H]4CC[C@]23C)n1 : what is it?
output: < 100 nM

input: Item under review: CC(=O)[C@H]1[C@H]2C[C@H]2[C@H]2[C@@H]3CC[C@@H]4C[C@](C)(O)CC[C@@H]4[C@H]3CC[C@@]21C . Reported IC50?
output: < 100 nM

input: Entry C[C@@]1(O)CC[C@H]2[C@H](CC[C@@H]3[C@@H]2CC[C@]2(C)[C@@H]([C@H]4C[C@@H]4Cn4cc(C#N)cn4)CC[C@@H]32)C1 : reported IC50 = ?
output: < 100 nM

input: # get_value(readout='IC50', item= C[C@@]1(O)CC[C@H]2[C@H](CC[C@@H]3[C@@H]2CC[C@@]2(C)[C@H]3C[C@H]3C[C@H]3[C@@H]2[C@](C)(O)Cn2cc(C#N)cn2)C1 )
output: < 100 nM

input: Data request, read-out IC50, for C[C@@]1(O)CC[C@@]2(C)[C@@H](CC[C@@H]3[C@@H]2CC[C@@]24C[C@@]32CC[C@@H]4C(=O)Cn2cc(C#N)cn2)C1
output: < 100 nM

input: Any idea what IC50 was measured for CC(=O)[C@H]1CC[C@@]23C[C@@]12CC[C@H]1[C@H]3CC[C@H]2C[C@](C)(O)CC[C@@]21C ?
output: 100 to 1000 nM

input: For the compound shown here, C[C@@]1(O)CC[C@H]2[C@H](CC[C@@H]3[C@@H]2CC[C@@]2(C)[C@H]3C[C@H]3C[C@H]3[C@@H]2[C@@](C)(O)Cn2cc(C#N)cn2)C1 , give the reported IC50.
output: < 100 nM

input: Can you look up the measured IC50 of CC(Cn1cc(C#N)cn1)[C@H]1[C@H]2C[C@H]2[C@H]2[C@@H]3CC[C@@H]4C[C@](C)(O)CC[C@@H]4[C@H]3CC[C@@]21C (single isomer, unassigned) [Compound No. 11] for me?
output: < 100 nM

input: # query: IC50 of entry C[C@@]1(O)CC[C@H]2[C@H](CC[C@@H]3[C@@H]2CC[C@@]2(C)[C@H]3[C@@H]3C[C@@H]3C[C@@H]2C(=O)Cn2cc(C#N)cn2)C1
output: < 100 nM

input: Value lookup for IC50; key = CCC[C@@]1(O)CC[C@@]2(C)[C@@H](CC[C@H]3[C@@H]4[C@@H]5C[C@@H]5[C@H]([C@@](C)(O)Cn5cc(C#N)cn5)[C@@]4(C)CC[C@@H]32)C1
output: > 1000 nM

input: Quick one: IC50 of CC(Cn1cc(C#N)cn1)[C@H]1[C@H]2C[C@H]2[C@H]2[C@@H]3CC[C@@H]4C[C@](C)(O)CC[C@@H]4[C@H]3CC[C@@]21C (single isomer, unassigned) [Compound No. 10] ?
output: < 100 nM

input: Requested read-out: IC50. Entry: COC[C@@]1(O)CC[C@H]2[C@@H](CC[C@@H]3[C@@H]2CC[C@@]2(C)[C@H]3[C@@H]3C[C@@H]3[C@@H]2[C@@H](C)Cn2nnc(C)n2)C1
output: 100 to 1000 nM
